# protocol.text: AUC (0 to t) in fasted Sprague-Dawley rat at 17.5 mg/kg, po by LC-MS/MS analysis
# Assay type: ADME, organism-based
# particulars: in vivo
measured.quantity: AUC(0-t) (ng·h/mL)

smiles_string=CC(=O)OCCOC(=O)n1c(=O)ccn([C@@H]2O[C@](F)(COC(=O)C(C)C)[C@@H](O)[C@H]2O)c1=O observed=4300

###

# protocol.text: Stability of compound at pH 1.5 assessed as change in purity at 1 mg/ml incubated for 12 hrs by HPLC analysis
# Assay type: physicochemical
# particulars: buffer, pH 1.5, 12 h
measured.quantity: Activity (%)

smiles_string=CC(C)C(=O)OCn1c(=O)ccn([C@@H]2O[C@](F)(COC(=O)C(C)C)[C@@H](OC(=O)C(C)C)[C@H]2OC(=O)C(C)C)c1=O observed=-3.7
smiles_string=CCC(=O)OC[C@@]1(F)O[C@@H](n2ccc(=O)n(COC(=O)c3cccnc3)c2=O)[C@H](OC(=O)CC)[C@@H]1OC(=O)CC observed=-5.3
smiles_string=CC(C)C(=O)OC[C@@]1(F)O[C@@H](n2ccc(=O)n(COC(=O)c3cccnc3)c2=O)[C@@H]2OC(=O)O[C@@H]21 observed=-5.5
smiles_string=O=c1ccn([C@@H]2O[C@](F)(CO)[C@@H](O)[C@H]2O)c(=O)[nH]1 observed=-64.4
smiles_string=CC(C)C(=O)O[C@H]1[C@H](n2ccc(=O)n(COC(=O)c3cccnc3)c2=O)O[C@](F)(COC(=O)c2cccnc2)[C@H]1OC(=O)C(C)C observed=-4.8
smiles_string=CC(C)C(=O)OC[C@@]1(F)O[C@@H](n2ccc(=O)n(COC(=O)[C@@H]3CCCN3)c2=O)[C@H](OC(=O)C(C)C)[C@@H]1OC(=O)C(C)C.Cl observed=-4.1
smiles_string=CC(=O)O[C@H]1[C@H](n2ccc(=O)n(COC(=O)c3cccnc3)c2=O)O[C@](F)(COC(=O)C(C)C)[C@H]1OC(C)=O observed=-5.6

###

# protocol.text: Cmax in fasted Cynomolgus monkey at 11.6 mg/kg, po by LC-MS/MS analysis
# Format: ADME, organism-based, Macaca fascicularis
# particulars: in vivo
measured.quantity: Cmax (ng/mL)

smiles_string=CC(C)C(=O)OC[C@@]1(F)O[C@@H](n2ccc(=O)n(COC(=O)c3cccnc3)c2=O)[C@H](OC(=O)C(C)C)[C@@H]1OC(=O)C(C)C measured_quantity=Cmax observed=2390

###

Reported Activity values for the following compounds.
# protocol.text: Stability of compound at pH 6.8 assessed as change in purity at 1 mg/ml incubated for 12 hrs by HPLC analysis
# Type: physicochemical
# particulars: buffer, pH 6.8, 12 h
measured.quantity: Activity (%)

smiles_string=CC(C)C(=O)OC[C@@]1(F)O[C@@H](n2ccc(=O)n(COC(=O)[C@@H]3CCCN3)c2=O)[C@H](OC(=O)C(C)C)[C@@H]1OC(=O)C(C)C.Cl measured_quantity=Activity observed=-30.5
smiles_string=CC(=O)O[C@H]1[C@H](n2ccc(=O)n(COC(=O)c3cccnc3)c2=O)O[C@](F)(COC(=O)C(C)C)[C@H]1OC(C)=O measured_quantity=Activity observed=-16.4
smiles_string=CC(C)C(=O)OCn1c(=O)ccn([C@@H]2O[C@](F)(COC(=O)C(C)C)[C@@H](O)[C@H]2O)c1=O measured_quantity=Activity observed=-2.4
smiles_string=CC(C)C(=O)OCn1c(=O)ccn([C@@H]2O[C@](F)(COC(=O)C(C)C)[C@@H](OC(=O)C(C)C)[C@H]2OC(=O)C(C)C)c1=O measured_quantity=Activity observed=-0.4
smiles_string=O=c1ccn([C@@H]2O[C@](F)(CO)[C@@H](O)[C@H]2O)c(=O)[nH]1 measured_quantity=Activity observed=-44.8
smiles_string=CC(=O)OC[C@@]1(F)O[C@@H](n2ccc(=O)n(COC(=O)c3cccnc3)c2=O)[C@H](OC(C)=O)[C@@H]1OC(C)=O measured_quantity=Activity observed=-4.3
smiles_string=CC(C)C(=O)OC[C@@]1(F)O[C@@H](n2ccc(=O)n(COC(=O)[C@@H]3CCCN3C)c2=O)[C@H](OC(=O)C(C)C)[C@@H]1OC(=O)C(C)C.Cl measured_quantity=Activity observed=-95
smiles_string=CC(C)C(=O)OC[C@@]1(F)O[C@@H](n2ccc(=O)n(COC(=O)[C@@H](N)C(C)C)c2=O)[C@H](OC(=O)C(C)C)[C@@H]1OC(=O)C(C)C.Cl measured_quantity=Activity observed=-98.1
smiles_string=CC(C)C(=O)O[C@H]1[C@H](n2ccc(=O)n(COC(=O)c3cccnc3)c2=O)O[C@](F)(COC(=O)c2cccnc2)[C@H]1OC(=O)C(C)C measured_quantity=Activity observed=-8.1
smiles_string=CCC(=O)OC[C@@]1(F)O[C@@H](n2ccc(=O)n(COC(=O)c3cccnc3)c2=O)[C@H](OC(=O)CC)[C@@H]1OC(=O)CC measured_quantity=Activity observed=-4.9
smiles_string=CC(C)C(=O)OC[C@@]1(F)O[C@@H](n2ccc(=O)n(COC(=O)c3cccnc3)c2=O)[C@H](OC(=O)C(C)C)[C@@H]1OC(=O)C(C)C measured_quantity=Activity observed=-0.3
smiles_string=CC(C)C(=O)OC[C@@]1(F)O[C@@H](n2ccc(=O)n(COC(=O)c3cccnc3)c2=O)[C@@H]2OC(=O)O[C@@H]21 measured_quantity=Activity observed=-76

The values you see were collected from ChEMBL document CHEMBL6177980.
